Origin of the recorded values: patent US6100074A

tested on: wild type P450cam (Pseudomonas putida)
Format: binding
conditions used: Wild type; 200 μM test compound, phosphate buffer pH 7.4
As shown below, each of these compounds has a reported ΔSpin high/low (percentage of P-450 converted from low- to high-spin) value.
All answers are understood in %, so give the number only.

Some entries whose results are on file:
[
  {
    "compound": "CC1(C)C(=O)[C@]2(C)CC[C@H]1C2 [(1R)-(-)-Fenchone]",
    "recorded result": 40
  },
  {
    "compound": "C1=Cc2ccccc2CC1 [1,2-Dihydronaphthalene]",
    "recorded result": 5
  },
  {
    "compound": "c1ccc2c(c1)CCCC2 [1,2,3,4-Tetrahydro naphthalene]",
    "recorded result": 5
  },
  {
    "compound": "CC1(C)[C@@H]2CC[C@@]1(C)C(=O)C2=O [(1R)-(-)-Camphorquinone]",
    "recorded result": 80
  },
  {
    "compound": "C1CC[C@H]2CCCC[C@@H]2C1 [trans-Decahydro naphthalene]",
    "recorded result": 20
  },
  {
    "compound": "C1=CC2C3C=CC(C3)C2C1 (centres unmarked)",
    "recorded result": 50
  },
  {
    "compound": "C=C(C)[C@H]1CC=C(C)C(=O)C1 [(S)-(+)-Carvone]",
    "recorded result": 10
  }
]

Which ΔSpin high/low (percentage of P-450 converted from low- to high-spin) is reported for this compound? CCCCCCC 5

====

tested on: P-450cam mutant Y96A (Pseudomonas putida, UniProt P00183, Y97A)
Sequence (P00183 2-415 Y97A): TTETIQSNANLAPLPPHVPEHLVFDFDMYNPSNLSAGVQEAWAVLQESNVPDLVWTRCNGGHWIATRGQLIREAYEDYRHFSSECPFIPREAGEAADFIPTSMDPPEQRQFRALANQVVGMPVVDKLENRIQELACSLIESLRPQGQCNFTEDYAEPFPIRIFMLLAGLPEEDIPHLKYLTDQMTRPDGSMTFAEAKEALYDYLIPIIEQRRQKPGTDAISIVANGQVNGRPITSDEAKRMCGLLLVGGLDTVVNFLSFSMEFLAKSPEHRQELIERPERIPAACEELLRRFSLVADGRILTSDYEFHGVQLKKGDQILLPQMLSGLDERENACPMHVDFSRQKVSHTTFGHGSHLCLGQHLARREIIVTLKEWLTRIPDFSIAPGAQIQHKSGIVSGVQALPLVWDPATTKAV
assay info: biochemical
Type: binding
conditions used: Mutant Y96A; 200 μM DTT, 200 μM test compound, phosphate buffer; read-out: Vs DTT (percentage displacement of DTT bound to P-450)
outcome measure: percent displacement of bound DTT at 200 µM (%)
All answers are understood in %, so give the number only.

[
  {
    "compound": "C1=CC2C3C=CC(C3)C2C1 (stereo not shown) [Dicyclopentadiene]",
    "tested on": "P-450cam mutant Y96A (Pseudomonas putida, UniProt P00183, Y97A)",
    "recorded result": 90
  },
  {
    "compound": "CCc1ccccc1 [Ethylbenzene]",
    "tested on": "P-450cam mutant Y96A (Pseudomonas putida, UniProt P00183, Y97A)",
    "recorded result": 40
  }
]

Which percent displacement of bound DTT at 200 µM is reported for this compound? CC(=O)Oc1cccc2ccccc12 [1-Naphthylacetate] 5

====

tested on: P450cam mutant Y96A, C334A (Pseudomonas putida, UniProt P00183, C335A/Y97A)
Construct: reconstituted with putidaredoxin and putidaredoxin reductase
Sequence (P00259 whole entry): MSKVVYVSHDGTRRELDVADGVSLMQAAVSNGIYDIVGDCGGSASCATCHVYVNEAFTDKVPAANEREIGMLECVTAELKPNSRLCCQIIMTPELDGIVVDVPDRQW
Sequence (P00183 2-415 Y97A/C335A): as the sequence (P00183 2-415 Y97A) above, with C334A counted along it
Sequence (P16640 whole entry, further chain): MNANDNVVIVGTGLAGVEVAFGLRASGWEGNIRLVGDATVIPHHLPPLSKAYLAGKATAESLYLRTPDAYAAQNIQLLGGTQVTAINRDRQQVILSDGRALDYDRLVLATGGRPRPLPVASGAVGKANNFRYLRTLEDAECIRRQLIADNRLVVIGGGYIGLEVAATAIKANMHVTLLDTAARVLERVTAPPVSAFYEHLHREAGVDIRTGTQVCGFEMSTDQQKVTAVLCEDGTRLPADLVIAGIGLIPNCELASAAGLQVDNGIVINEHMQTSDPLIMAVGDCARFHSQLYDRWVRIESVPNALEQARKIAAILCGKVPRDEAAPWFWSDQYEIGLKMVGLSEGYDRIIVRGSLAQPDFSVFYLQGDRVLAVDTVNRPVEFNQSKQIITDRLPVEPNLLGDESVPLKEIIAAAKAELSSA
Format: biochemical, P. putida
conditions used: also contains C334A
outcome measure: Turnover rate measured as NADH consumption rate

Some entries whose results are on file:
[
  {
    "smiles representation": "CC(C)CC(C)C",
    "recorded result": "12.6 nmole NADH/nmole P450cam/s"
  },
  {
    "smiles representation": "CCCC(C)C",
    "recorded result": "11.7 nmole NADH/nmole P450cam/s"
  },
  {
    "smiles representation": "CCCCC(C)C",
    "recorded result": "10.6 nmole NADH/nmole P450cam/s"
  }
]

Which Turnover rate measured as NADH consumption rate is reported for this compound? CCCC(C)(C)C 12.8 nmole NADH/nmole P450cam/s

Proceed to CC(C)CC(C)(C)C 5.3 nmole NADH/nmole P450cam/s

Proceed to CCCC(C)CCC 10.2 nmole NADH/nmole P450cam/s

Proceed to CCC(CC)CC 16.2 nmole NADH/nmole P450cam/s

Proceed to CCCCCC 6.0 nmole NADH/nmole P450cam/s

====

tested on: wild type P450cam (Pseudomonas putida)
assay info: biochemical
Type: binding
conditions used: Wild type; 200 μM DTT, 200 μM test compound, phosphate buffer; read-out: Vs DTT (percentage displacement of DTT bound to P-450)
As shown below, each of these compounds has a reported inhibition at 200 µM value.
All answers are understood in %, so give the number only.

Some entries whose results are on file:
[
  {
    "compound": "C1CC[C@H]2CCCC[C@@H]2C1 [trans-Decahydro naphthalene]",
    "tested on": "wild type P450cam (Pseudomonas putida)",
    "inhibition at 200 µM / %": 10
  },
  {
    "compound": "c1ccc2c(c1)CCCC2 [1,2,3,4-Tetrahydro naphthalene]",
    "tested on": "wild type P450cam (Pseudomonas putida)",
    "inhibition at 200 µM / %": 10
  },
  {
    "compound": "CCCCCCCC",
    "tested on": "wild type P450cam (Pseudomonas putida)",
    "inhibition at 200 µM / %": 5
  },
  {
    "compound": "O=C(c1ccccc1)c1ccc2ccccc2c1",
    "tested on": "wild type P450cam (Pseudomonas putida)",
    "inhibition at 200 µM / %": 5
  },
  {
    "compound": "c1ccc(Oc2ccccc2)cc1",
    "tested on": "wild type P450cam (Pseudomonas putida)",
    "inhibition at 200 µM / %": 5
  },
  {
    "compound": "CC1(C)C(=O)[C@]2(C)CC[C@H]1C2 [(1R)-(-)-Fenchone]",
    "tested on": "wild type P450cam (Pseudomonas putida)",
    "inhibition at 200 µM / %": 70
  }
]

Proceeding to the next compound to report its inhibition at 200 µM.
Which inhibition at 200 µM is reported for this compound? c1ccc(CNc2ccccc2)cc1 5

====

tested on: P-450cam mutant Y96A (Pseudomonas putida, UniProt P00183, Y97A)
assay info: biochemical
Format: binding
conditions used: Mutant Y96A; 200 μM DTT, 200 μM test compound, phosphate buffer; read-out: Vs DTT (percentage displacement of DTT bound to P-450)
As shown below, each of these molecules has a reported percent displacement of bound DTT at 200 µM value.
All answers are understood in %, so give the number only.

Some entries whose results are on file:
[
  {
    "molecule": "O=Cc1ccc2c(c1)Cc1ccccc1-2",
    "recorded result": 50
  },
  {
    "molecule": "C1CCCCC1",
    "recorded result": 60
  }
]

Which percent displacement of bound DTT at 200 µM is reported for this molecule? C(=C/c1ccccc1)/c1ccccc1 [cis-Stilbene] 50

Proceed to C1=CCCCC1 40

Proceed to CCCCCCCCCCC 20

====

tested on: P-450cam mutant Y96A (Pseudomonas putida, UniProt P00183, Y97A)
assay info: biochemical
Assay type: binding
conditions used: Mutant Y96A; 200 μM DTT, 200 μM test compound, phosphate buffer; read-out: Vs DTT (percentage displacement of DTT bound to P-450)
outcome measure: percent displacement of bound DTT at 200 µM (%)
All answers are understood in %, so give the number only.

Some entries whose results are on file:
[
  {
    "compound": "CC1CCCCC1",
    "tested on": "P-450cam mutant Y96A (Pseudomonas putida, UniProt P00183, Y97A)",
    "unit text": "%",
    "recorded result": 60
  },
  {
    "compound": "c1ccc(CCc2ccccc2)cc1",
    "tested on": "P-450cam mutant Y96A (Pseudomonas putida, UniProt P00183, Y97A)",
    "unit text": "%",
    "recorded result": 55
  },
  {
    "compound": "c1ccc2c(c1)ccc1ccccc12",
    "tested on": "P-450cam mutant Y96A (Pseudomonas putida, UniProt P00183, Y97A)",
    "unit text": "%",
    "recorded result": 20
  },
  {
    "compound": "O=C1c2ccccc2Cc2ccccc21",
    "tested on": "P-450cam mutant Y96A (Pseudomonas putida, UniProt P00183, Y97A)",
    "unit text": "%",
    "recorded result": 5
  },
  {
    "compound": "c1ccc2ccccc2c1",
    "tested on": "P-450cam mutant Y96A (Pseudomonas putida, UniProt P00183, Y97A)",
    "unit text": "%",
    "recorded result": 20
  },
  {
    "compound": "Cc1ccccc1",
    "tested on": "P-450cam mutant Y96A (Pseudomonas putida, UniProt P00183, Y97A)",
    "unit text": "%",
    "recorded result": 30
  }
]

Which percent displacement of bound DTT at 200 µM is reported for this compound? O=C(c1ccccc1)c1ccc2ccccc2c1 5

Proceed to CC1(C)[C@@H]2CC[C@@]1(C)C(=O)C2=O [(1R)-(-)-Camphorquinone] 80

Proceed to CCc1ccc2ccccc2c1 20

====

As shown below, each of these compounds has a reported inhibition at 200 µM value.
tested on: wild type P450cam (Pseudomonas putida, UniProt P00183)
Sequence (P00183 whole entry): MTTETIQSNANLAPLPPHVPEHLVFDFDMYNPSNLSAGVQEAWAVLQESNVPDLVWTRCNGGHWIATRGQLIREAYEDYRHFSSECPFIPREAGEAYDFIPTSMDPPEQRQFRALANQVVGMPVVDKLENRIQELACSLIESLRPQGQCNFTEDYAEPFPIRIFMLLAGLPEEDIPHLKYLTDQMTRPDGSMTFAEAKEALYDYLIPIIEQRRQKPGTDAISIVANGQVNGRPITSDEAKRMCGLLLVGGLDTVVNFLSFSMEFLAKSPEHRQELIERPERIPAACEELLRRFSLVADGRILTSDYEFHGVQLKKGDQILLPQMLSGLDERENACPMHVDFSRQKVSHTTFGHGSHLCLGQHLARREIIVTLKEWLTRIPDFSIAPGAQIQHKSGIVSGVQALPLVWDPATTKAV
assay info: biochemical
Type: binding
conditions used: Wild type; 200 μM DTT, 200 μM test compound, phosphate buffer; read-out: Vs DTT (percentage displacement of DTT bound to P-450)

[
  {
    "compound": "CCCCCCCC/C=C\\CCCCCCCC(=O)O",
    "inhibition at 200 µM": "~10%"
  },
  {
    "compound": "CCCCCCCCCCCCOS(=O)(=O)O",
    "inhibition at 200 µM": "20%"
  },
  {
    "compound": "C(=C/c1ccccc1)/c1ccccc1 [cis-Stilbene]",
    "inhibition at 200 µM": "20%"
  },
  {
    "compound": "C1=Cc2ccccc2CC1 [1,2-Dihydronaphthalene]",
    "inhibition at 200 µM": "20%"
  },
  {
    "compound": "O=C(c1ccccc1)C1CCCCC1",
    "inhibition at 200 µM": "30%"
  },
  {
    "compound": "C1=CCCCC1",
    "inhibition at 200 µM": "5%"
  },
  {
    "compound": "C=C(C)[C@H]1CC=C(C)C(=O)C1 [(S)-(+)-Carvone]",
    "inhibition at 200 µM": "60%"
  }
]

Provide the documented inhibition at 200 µM with wild type P450cam (Pseudomonas putida, UniProt P00183) as the system for c1ccc(C2CCCCC2)cc1 20%
